# credit: ChEMBL document CHEMBL2163299

ASSAY_NOTES: Cytotoxicity against human LN18 cells assessed as reduction in cell survival after 72 hrs by MTT assay
Format: functional, cell-based
CONDITIONS: LN-18, 72 h
ENDPOINT: IC50 (µM)
// note: answer is a bare numeric in µM

# get_value(readout='IC50', item= C=CCN(C)Cc1ccc(-c2ccc(C(=O)c3ccc(Br)cc3)cc2)cc1.Cl )
2.3

# get_value(readout='IC50', item= C=CCN(C)CCCCC[C@H]1CC[C@H](N(C)C(=O)Oc2ccc(C(F)(F)F)cc2)CC1.O=C(O)CC(O)(CC(=O)O)C(=O)O )
2.8

# get_value(readout='IC50', item= CCCN(C)CCCC#C[C@H]1CC[C@H](N(C)C(=O)Oc2ccc(Cl)cc2)CC1.O=C(O)/C=C/C(=O)O )
28

# get_value(readout='IC50', item= CCN(CCO)CCCC#C[C@H]1CC[C@H](N(C)C(=O)Oc2ccc(Cl)cc2)CC1.Cl )
13.4
